Target: human KDR protein in HEK-293 cells (Homo sapiens (Human))
Sequence (P35968 20-1356): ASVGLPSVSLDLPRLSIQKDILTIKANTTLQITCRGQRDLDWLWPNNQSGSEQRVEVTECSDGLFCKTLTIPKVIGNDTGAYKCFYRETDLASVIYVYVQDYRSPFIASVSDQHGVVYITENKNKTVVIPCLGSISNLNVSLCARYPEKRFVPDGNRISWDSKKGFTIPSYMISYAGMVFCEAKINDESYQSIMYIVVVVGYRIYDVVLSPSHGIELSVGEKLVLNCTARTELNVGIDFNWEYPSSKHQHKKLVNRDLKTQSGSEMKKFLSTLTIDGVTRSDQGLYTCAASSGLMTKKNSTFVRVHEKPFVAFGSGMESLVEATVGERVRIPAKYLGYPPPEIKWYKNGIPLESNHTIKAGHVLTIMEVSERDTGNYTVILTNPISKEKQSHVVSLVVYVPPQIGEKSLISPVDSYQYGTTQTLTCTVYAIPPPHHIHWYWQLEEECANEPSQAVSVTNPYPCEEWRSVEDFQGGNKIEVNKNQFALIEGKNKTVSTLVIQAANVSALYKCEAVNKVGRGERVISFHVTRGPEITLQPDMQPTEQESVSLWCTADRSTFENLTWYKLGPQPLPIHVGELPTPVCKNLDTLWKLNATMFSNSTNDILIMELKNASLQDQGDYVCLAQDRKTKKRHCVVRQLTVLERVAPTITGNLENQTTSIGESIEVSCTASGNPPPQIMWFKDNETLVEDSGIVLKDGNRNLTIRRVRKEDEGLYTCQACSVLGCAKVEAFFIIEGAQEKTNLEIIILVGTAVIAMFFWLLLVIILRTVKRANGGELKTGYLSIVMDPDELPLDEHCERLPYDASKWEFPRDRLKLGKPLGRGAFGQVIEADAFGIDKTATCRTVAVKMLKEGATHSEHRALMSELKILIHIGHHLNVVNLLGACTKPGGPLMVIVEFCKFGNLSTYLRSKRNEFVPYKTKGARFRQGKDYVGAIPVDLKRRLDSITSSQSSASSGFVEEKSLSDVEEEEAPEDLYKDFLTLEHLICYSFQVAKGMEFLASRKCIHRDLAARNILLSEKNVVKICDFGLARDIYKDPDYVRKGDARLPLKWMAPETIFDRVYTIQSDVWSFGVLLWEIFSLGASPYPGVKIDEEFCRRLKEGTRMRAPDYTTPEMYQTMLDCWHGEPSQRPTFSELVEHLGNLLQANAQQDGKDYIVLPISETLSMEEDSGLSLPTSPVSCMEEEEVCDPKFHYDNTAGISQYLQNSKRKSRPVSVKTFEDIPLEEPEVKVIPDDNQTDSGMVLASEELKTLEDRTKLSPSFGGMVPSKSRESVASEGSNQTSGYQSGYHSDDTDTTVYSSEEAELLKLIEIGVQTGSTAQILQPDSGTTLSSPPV
Assay: KDR Cell Assay (phospho-KDR in HEK-293 cells expressing inducible KDR)
Format: cell-based
Details: pKDR Cell HEK 10% FBS IC50, HEK-293 cells expressing inducible KDR, VEGF stimulated
pIC50: −log10 of the molar value. Structures can show the parent of a compound that is named as a salt.
Please use Fulfilled whenever pIC50 is not below 6, and Not fulfilled whenever it is.

Record excerpt, results attached:
>  <molecule>
Cn1cc(-c2cc(-c3ccc(N4CCN(CC5CC5)CC4)nc3)c3c(C#N)cnn3c2)cn1

>  <class>
Fulfilled

$$$$
>  <molecule>
Cn1cc(-c2cc(-c3ccc(N4CCC5(CC4)CN(C(=O)N4CCCC4)C5)nc3)c3c(C#N)cnn3c2)cn1

>  <class>
Fulfilled

$$$$
>  <molecule>
Cn1cc(-c2cc(-c3ccc(N4CCC(c5ccc(Cl)cc5)CC4)nc3)c3c(C#N)cnn3c2)cn1 [Example 534, 2,2,2-trifluoroacetate]

>  <class>
Fulfilled

$$$$
>  <molecule>
Cn1cc(-c2cc(-c3ccc(N4CCN(C(=O)[C@@H](CO)c5ccccc5)CC4)nc3)c3c(C#N)cnn3c2)cn1

>  <class>
Not fulfilled

$$$$
>  <molecule>
C[C@H](c1ccccc1)N1CCN(c2ccc(-c3cc(-c4cnn(C)c4)cn4ncc(C#N)c34)cn2)CC1 [Example 421, dihydrochloride]

>  <class>
Not fulfilled

$$$$

Exam item: decide whether the reported pIC50 for `COC(C)(C)CN1CCN(c2ccc(-c3cc(-c4cnn(C)c4)cn4ncc(C#N)c34)cn2)CC1` is at least 6.
Not fulfilled

Can `CCC(CC)C(=O)N1CC2(CCN(c3ccc(-c4cc(-c5cnn(C)c5)cn5ncc(C#N)c45)cn3)CC2)C1` be said to have pIC50 at or above 6?
Not fulfilled

Form field: pIC50 at least 6? Entry: Cn1cc(-c2cc(-c3ccc(C4CCN(Cc5ccccc5)C4)nc3)c3c(C#N)cnn3c2)cn1 (centres unmarked)
Fulfilled
